Cited source: patent US11718612B2

# Test system: U937 cells
# test_summary: Human U937 cellular necroptosis assay
# Assay type: cell-based
# test_conditions: U-937; U937 cells stimulated with 25 ng/mL human TNFalpha and 25 μM z-VAD-FMK; 22 hr; Cell Titer-Glo viability
property_measured: IC50 (nM)

Cc1nc(C(=O)Nc2cccc(Cl)c2F)nn1Cc1ccccc1 [Example 13]: 1270
O=C1c2nn(Cc3cncc(F)c3)c(Cl)c2CCN1c1cccc(Cl)c1F [Example 54]: 128
O=C1c2nn(Cc3ncccc3F)c(Cl)c2CCN1c1cccc(Cl)c1F [Example 63]: 64.1
CC(=O)NCc1cc(Cl)c(F)c(N2CCc3c(nn(Cc4cccc(F)c4F)c3Cl)C2=O)c1 [Example 85]: 1040
Cn1cc(Cn2nc3c(c2Cl)CCN(c2cccc(Cl)c2F)C3=O)cn1 [Example 68]: 1340
Cc1c2c(nn1Cc1ccccc1)C(=O)N(c1cccc(Cl)c1F)CC2 [Example 70]: 233

----------
pIC50: −log10 of the molar value.
Entries with reported pIC50 on RIPK1 (Homo sapiens (Human), UniProt Q13546)
Sequence (Q13546 1-327): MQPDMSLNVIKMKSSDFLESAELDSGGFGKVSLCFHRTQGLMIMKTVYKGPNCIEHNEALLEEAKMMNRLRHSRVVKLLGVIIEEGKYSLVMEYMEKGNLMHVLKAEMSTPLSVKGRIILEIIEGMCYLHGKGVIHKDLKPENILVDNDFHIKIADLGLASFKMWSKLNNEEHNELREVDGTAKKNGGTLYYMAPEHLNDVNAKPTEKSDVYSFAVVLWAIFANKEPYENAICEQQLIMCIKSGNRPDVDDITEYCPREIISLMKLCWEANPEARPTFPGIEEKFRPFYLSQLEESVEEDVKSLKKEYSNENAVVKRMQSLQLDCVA
property_measured: pIC50

Cc1ccc(Cn2cnc(C(=O)Nc3cccc(Cl)c3F)n2)cn1: 5.84
O=C(Nc1cccc(Cl)c1F)c1nc2n(n1)[C@H](c1ccccc1)C[C@@H]2F: 7.31
Cc1ccc(Cn2cnc(C(=O)Nc3cccc(Cl)c3F)n2)cc1F: 7.49
N#Cc1ccc(NC(=O)c2ncn(Cc3ccccc3)n2)c(F)c1Cl: 5.85
Cn1nc(C(=O)Nc2cccc(Cl)c2F)nc1Cc1ccccc1: 6.15
O=C1c2nn(Cc3cncc(F)c3)c(Cl)c2CCN1c1cccc(Cl)c1F: 6.88
Cn1cc(-c2cc(Cl)c(F)c(NC(=O)c3n[nH]c(Cc4ccccc4)n3)c2)cn1: 5.36
O=C1c2nc(Cc3ccccc3)c(Cl)n2CCN1c1cccc(Cl)c1F: 6.91
O=C(Nc1cccc2nn[nH]c12)c1ncn(Cc2ccccc2)n1: 6.16
Cc1ccc(Cn2cnc(C(=O)Nc3cccc(Cl)c3F)n2)cc1: 6.25
O=C(Nc1ccc(OC(F)(F)F)cc1F)c1ncn(Cc2ccccc2)n1: 6.09
O=C(Nc1cccc(Cl)c1F)c1ncn(Cc2cccc(F)c2)n1: 7.44
O=C1c2nn(Cc3cc(F)ccc3F)c(Cl)c2CCN1c1cccc(Cl)c1F: 7.73
N#Cc1cccc(Cn2cnc(C(=O)Nc3cccc(Cl)c3F)n2)c1: 7.47
O=C1c2nc(Cc3ccccc3)ccc2CN1c1ccccc1F: 5.43
Cn1cc(-c2cc(Cl)c(F)c(NC(=O)c3ncn(Cc4ccccc4)n3)c2)cn1: 6.09
O=C1c2nc(Cc3ccccc3)c(Cl)n2CCN1c1cccc(Cl)c1: 6.50
Cc1cc(NC(=O)c2ncn(Cc3ccccc3)n2)ccc1OC(F)(F)F: 5.31
COc1ccc(NC(=O)c2ncn(Cc3ccccc3)n2)c(F)c1Cl: 6.96
Cc1nc(C(=O)Nc2ccc(OC(F)(F)F)cc2)nn1Cc1ccccc1: 5.33

----------
Property: IC50; scope: individual compounds
# System: U937 cells
# test_summary: Human U937 cellular necroptosis assay
# Type: cell-based
# test_conditions: U-937; U937 cells stimulated with 25 ng/mL human TNFalpha and 25 μM z-VAD-FMK; 22 hr; Cell Titer-Glo viability
property_measured: IC50 (nM)

N#Cc1cccc(Cn2nc3c(c2Cl)CCN(c2cccc(Cl)c2F)C3=O)c1 [Example 58]: 95.9
O=C(Nc1ccc(OC(F)(F)F)cc1F)c1ncn(Cc2ccccc2)n1 [Example 51]: 8240
O=C1c2nn(Cc3cc(F)ccc3F)c(Cl)c2CCN1c1cccc(Cl)c1F [Example 50]: 42.5
CC(c1cccc(C#N)c1)n1cnc(C(=O)Nc2cccc(Cl)c2F)n1 (stereo not shown) [Example 56]: 1510
O=C(Nc1cccc(Cl)c1F)c1ncn(Cc2cccc(F)c2)n1 [Example 88]: 872
COc1ccc(NC(=O)c2ncn(Cc3ccccc3)n2)c(F)c1Cl [Example 30]: 1490
C[C@@H](c1cccc(F)c1F)n1nc2c(c1Cl)CCN(c1cccc(Cl)c1F)C2=O (single isomer, unassigned) [Example 55b]: 6390
O=C1c2nn(CC3CCCOC3)c(Cl)c2CCN1c1cccc(Cl)c1F (stereo not shown) [Example 69]: 563
O=C(Nc1cccc(Cl)c1F)c1ncn(Cc2cnccn2)n1 [Example 32]: 1920
Cc1cccc(Cn2nc3c(c2Cl)CCN(c2cccc(Cl)c2F)C3=O)c1 [Example 67]: 444
O=C(Nc1cc(Cn2ccnc2)cc(Cl)c1F)c1ncn(Cc2ccccc2)n1 [Example 97]: 1180
O=C1c2nn(Cc3ccccc3)c(CO)c2CCN1c1cccc(Cl)c1F [Example 73]: 348
O=C1c2nn(Cc3ccccc3)c(Br)c2CCN1c1cccc(Cl)c1F [Example 61]: 44.6
O=C1c2nn(Cc3ncccc3F)cc2CCN1c1cc(CO)cc(Cl)c1F [Example 77]: 594
Cn1nc(C(=O)Nc2cccc(Cl)c2F)nc1Cc1ccccc1 [Example 10]: 9220
O=C1c2nn(Cc3cccc(F)c3F)c(Cl)c2CCN1c1cc(Cn2ccnc2)cc(Cl)c1F [Example 82]: 863
COCCOCc1cc(Cl)c(F)c(N2CCc3c(nn(Cc4cccc(F)c4F)c3Cl)C2=O)c1 [Example 80]: 958
